- System: EKVX NSCLC
- Experiment summary: NCI tumour cell line growth inhibition, 48 h
Collected TGI values appear next to each entry.

Given the compound O=C(O)c1ccccc1C1CCCc2c1[nH]c1ccccc21 (stereo not drawn) , what is its reported TGI?
> 100 µM

Query (compound): CC(=O)Nc1cc(C(=O)Nc2cc(C(=O)Nc3cc(C(=O)Nc4cc(C(=O)Nc5cc(C(=O)NCCC(=O)NCCCN(C)C)n(C)c5)n(C)c4)n(C)c3)n(C)c2)n(C)c1 ; field requested: TGI
> 100 µM

Sample COc1cc(C2c3cc4c(cc3OC(N3CCCCC3)C2C)OCO4)cc(OC)c1OC (stereo not drawn) — what was its TGI?
> 100 µM

Next compound, please.
Entry COC(=O)[C@@]12OC[C@]34[C@H]([C@@H](O)[C@@H]1O)[C@@]1(C)CC(=O)C(OC(C)=O)=C(C)[C@@H]1C[C@H]3OC(=O)[C@H](OC(=O)C=C(C)C)[C@@H]24 : reported TGI = ?
5.38 µM

====

Parameter GI50: see the listing below.
- Tested on: PC-3 prostate
- Experiment summary: NCI tumour cell line growth inhibition, 48 h

Some compounds with recorded GI50:
Need GI50, item Cn1cc(C2=C(Sc3ccccc3)C(=O)NC2=O)c2ccccc21
> 25 µM

Need GI50, item COc1ccc(C2=C(c3cn(C)c4ccccc34)C(=O)NC2=O)cc1
> 21.9 µM

For the compound shown here, CCOC(=O)c1ccc2c(c1)c1c(C)c3ccncc3c(C)c1n2C , give the reported GI50.
0.486 µM

Fill in the blank: the reported GI50 of CCCCCCCCCCCCC[N+](C)(C)Cc1ccccc1 is ____.
0.306 µM

Using the record for O=C(Cc1csc2nc(-c3ccc(Br)cc3)cn12)N/N=C/c1cc(Br)ccc1O , report its GI50.
9.46 µM

Consider the compound COc1cc(/C=C2\CC3C4CCC5=CC(=O)CC[C@]5(C)C4CC[C@]3(C)C2=O)ccc1OCCCn1ccnc1 (stereo partly specified) and give its measured GI50.
4.1 µM

Entry Nc1nc(-c2cccc3ccccc23)cc2ccccc12 : reported GI50 = ?
0.257 µM

Given the entry CC(C)=CC(=O)OCC(=O)O[C@@H]1C[C@]2(C(C)C)O[C@@]1(C)[C@@H]1CC[C@@H](C)[C@H]1[C@@H]2OC(=O)/C=C/c1ccccc1 , report its measured GI50.
6.01 µM

New cases:
Bench note: what GI50 did CC(C)(O)c1coc(S(=O)(=O)/N=C(\O)Nc2c3c(cc4c2CCC4)CCC3)c1 show?
> 100 µM

Returns the measured GI50 for the input compound. Input: COc1cc(Nc2cc(C)nc(N3CCN(c4ccnc5cc(Cl)ccc45)CC3)n2)cc(OC)c1
0.245 µM

Given CCN(CC)c1ccc(N=O)cc1 , state its recorded GI50.
3.14 µM

====

# GI50 annotations
- Test system: SK-MEL-5 melanoma
- Experiment summary: NCI tumour cell line growth inhibition, 48 h

Give its GI50 value. Item: O=C1NC(=NCCc2cccs2)S/C1=C\c1ccc2ncccc2c1
8.5 µM

// returns reported GI50 for input Cc1cc(OCc2n[nH]c(=S)n2/N=C/c2ccc(F)cc2)ccc1Cl
17.9 µM

# lookup: GI50 of Cc1cc(C)c(CNC(=O)c2cc(-c3ccc(CN4CCOCC4)cc3)cc3c2cnn3C2CCCC2)c(=O)[nH]1
13.7 µM

====

Recorded TGI values for a group of compounds are listed next.
- Test system: SNB-75 CNS
- Experiment summary: NCI tumour cell line growth inhibition, 48 h

# get_value(readout= TGI, system= SNB-75 CNS) for CC(C(N)=O)N(C)C(=O)c1cc2ccccc2[n+](Cc2ccccc2)c1 (stereo unspecified)
> 100 µM

Reported TGI for SNB-75 CNS, given OC(Cc1cccnc1)(c1ccccc1)c1ccccc1 ?
> 100 µM

Item: O=c1oc2ccccc2c(O)c1/C=N/C(=S)Nc1ccccc1 Test system: SNB-75 CNS Read-out: TGI Value: ?
97.8 µM

Please state recorded TGI (tested on SNB-75 CNS) of CN(CCNC(=O)c1[nH]nc2c1Cc1ccccc1-2)CCNC(=O)c1[nH]nc2c1Cc1ccccc1-2
26.1 µM

// map CCOC(=O)[C@@H]1C2C(=C[C@H]3[C@H]1C(=O)N1CCCC[C@H]31)CCCN2C(=O)OCc1ccccc1 (stereo partly specified) to recorded TGI (system: SNB-75 CNS)
> 100 µM

***
Return TGI measured with SNB-75 CNS given this compound: O=C1c2ccccc2C(=O)N1C/C=N/NS(=O)(=O)c1ccc2ccccc2c1
> 100 µM

Request: TGI, test system SNB-75 CNS, entry COC(=O)C1=C(C)NC(C)=C(C(=O)OC)C1c1ccc(NO)cc1
45.8 µM

Lab note: need TGI with SNB-75 CNS for entry Cc1cc(S(=O)(=O)Nc2nc(N)nc(N(C)C)n2)c(S)cc1Cl , please look it up.
> 10 µM

Requested read-out TGI, target or system SNB-75 CNS, entry Cn1cc(C2=C(Sc3ccccc3)C(=O)NC2=O)c2ccccc21
> 25 µM

====

Let's look at some compounds and their measured TGI.
- Tested on: HOP-92 NSCLC
- Experiment summary: NCI tumour cell line growth inhibition, 48 h
The reply should be a number in µM, with the unit left off.

Answered cases to consult:
Please state recorded TGI (tested on HOP-92 NSCLC) of COc1cc(C2c3cc4c(cc3OC(N3CCCCC3)C2C)OCO4)cc(OC)c1OC (stereo unspecified)
48.1

For HOP-92 NSCLC, provide TGI of O=C1/C(=C\c2ccc(Br)cc2)CN(C(=O)c2ccccc2F)C/C1=C\c1ccc(Br)cc1 please.
6.76

Lookup: TGI / HOP-92 NSCLC / O=c1nc2sc3ccc4ccccc4c3n2nc1-c1ccccc1
50

Lookup: TGI / HOP-92 NSCLC / COc1ccc2c(c1)CC1Cc3cc(OC)c(OC)cc3CN1CC2 (stereo unspecified)
67.2

Test system HOP-92 NSCLC; read-out TGI; what value for COc1cc2c(cc1OC)C(=O)/C(=C/c1ccccc1)CC2 ?
67.3

More entries:
Missing value: TGI, HOP-92 NSCLC, entry COc1cc(C(=O)/C=C/c2c(-c3cccs3)nc3sc(C)cn23)cc(OC)c1OC . Fill in?
4.93

Give TGI (HOP-92 NSCLC) of the following compound: CC(C)(C)c1[nH]nc2c1C(c1cc3ccccc3[nH]c1=O)Nc1cc(C(=O)Nc3ccc(Cl)cc3)ccc1N2 (stereo unspecified)
6.05

Form field: TGI recorded for O=c1[nH]c2cc(C(F)(F)F)ccc2nc1CBr with HOP-92 NSCLC (enter value)
11.1

Look up TGI with HOP-92 NSCLC for this compound: CCOC(=O)c1cc(C(=O)c2ccc(Cl)cc2)n2ccc(-c3cc[n+](CC(=O)c4ccc(OC)cc4)cc3)cc12
3.17

====

- Tested on: COLO 205 colon
- Experiment summary: NCI tumour cell line growth inhibition, 48 h
Quantity: TGI

Check out these entries, answers already filled in.
Return TGI measured with COLO 205 colon given this compound: CC(=O)Oc1ccc2c(c1OC(C)=O)CCC1C2=CC[C@]2(C)C(=O)CCC12 (some centres undefined)
27.7 µM

Value wanted: TGI (COLO 205 colon) of entry CCOC(=O)[C@@H]1C2C(=C[C@H]3[C@H]1C(=O)N1CCCC[C@H]31)CCCN2C(=O)OCc1ccccc1 (some centres undefined)
51.3 µM

Please state recorded TGI (tested on COLO 205 colon) of C=C(C)[C@@H]1CC[C@]2(COC(C)=O)CC[C@]3(C)[C@H](CC[C@@H]4[C@@]5(C)CC[C@H](OC(C)=O)C(C)(C)[C@@H]5CC[C@]43C)[C@@H]12
> 50 µM

// next entry
Query the reported TGI for COLO 205 colon; item: Nc1nc2c(c3cnccc13)C(c1cccc(Br)c1)Cc1cnccc1-2 (centres undefined)
1.07 µM

====

- System: MDA-MB-435
- Experiment summary: NCI tumour cell line growth inhibition, 48 h; in the data active means GI50 below about 0.43 µM; inactive means the rest
Please reply with one of these outcomes: active, inactive

Solved entries:
Hi, sorry to bother you, what did the test record for O=C1OCC2=C1C(c1cccc(F)c1)c1cc3c(cc1N2CCO)CCC3 (centres undefined) ?
active

Could you please tell me the result logged for COc1cc(CC(C)C(C)Cc2ccc(O)c(OC)c2)ccc1O (centres undefined) in this assay?
inactive

Check the results log: what was the call for COc1c(OCCCN2CCOCC2)ccc2c3n(c(=NC(=O)c4cnc(N)nc4)nc12)CCN3 ?
active

Assay outcome for CC(C)=CC(=O)OCC(=O)O[C@@H]1C[C@]2(C(C)C)O[C@@]1(C)[C@@H]1CC[C@@H](C)[C@H]1[C@@H]2OC(=O)/C=C/c1ccccc1 : what was it?
inactive

Give the logged outcome of this assay for the following molecule: COc1cc(-n2cncc2-c2ccc3ccccc3c2)cc(OC)c1OC
active

Field: outcome | Entry: Cn1cc(C2=C(Sc3ccccc3)C(=O)NC2=O)c2ccccc21
inactive

How was CC(=O)OCC1OC(OC2=C(CC=C(C)C)C(=O)c3ccccc3C2=O)C(OC(C)=O)C(OC(C)=O)C1OC(C)=O (centres undefined) classified in this test?
inactive

Recorded test outcome, item COc1cc2c3c(n(CCCN=[N+]=[N-])c(=O)c2cc1OC)-c1ccc(C#N)cc1C3=O
inactive

***
Query: recorded result category for Cc1c(NC(=O)c2cc(C(N)=O)nc3cc(F)ccc23)c(C(F)(F)F)nn1Cc1ccc(C#N)cc1 in this test
inactive

Give the logged outcome of this assay for the following molecule: CCN(CC)c1ccc(N=O)cc1
inactive

Check the results log: what was the call for C=C(C)[C@@H]1CC[C@]2(CNCCO)CC[C@]3(C)[C@H](CC[C@@H]4[C@@]5(C)CCC(N)[C@@](C)(CO)[C@@H]5CC[C@]43C)[C@@H]12 (some centres undefined) ?
inactive

Fill in: this test's call for CCOC(=O)c1ccc2c(c1)c1c(C)c3ccncc3c(C)c1n2C is ___
inactive

Test call for this molecule, please: COc1cccc2c1C(=O)c1c(O)c3c(c(O)c1C2=O)C[C@@](O)(C(=O)CO)C[C@@H]3OC1CC(N)C(O)C(C)O1 (some centres undefined)
inactive

How was CCN1CCN(c2cc(C)nc(N(CCCNc3ccnc4cc(Cl)ccc34)Cc3cccs3)n2)CC1 classified in this test?
inactive

Where do these numbers come from? They come from PubChem BioAssay (NCI).
